test system: RAW264.7; experiment: Cytotoxicity against mouse RAW264.7 cells assessed as cell viability at nitric oxide IC50 level by MTT assay; format: cell-based
property_name: Activity

                               smiles_input     result
0  C=C[C@]1(C)CC[C@@]2(C)C3=CC(=O)O[C@@H]3C(C)(C)C[C@H](O)[C@@H]2C1  Non-toxic
1  CC1=C2C=C3[C@@H](O)C[C@@H]4C(C)(C)CCC[C@@]4(C)[C@@H]3[C@@H](O)[C@H]2OC1=O  Non-toxic
2  CC1=C2[C@@H](O)C3=C([C@@H](O)[C@H]2OC1=O)[C@]1(C)CCCC(C)(C)[C@H]1CC3  Non-toxic

###

system: RAW264.7; assay: Inhibition of LPS-induced nitric oxide production in mouse RAW264.7 cells after 24 hrs by Griess assay; format: functional, cell-based; conditions: RAW264.7, 24 h
pIC50: −log10 of the molar value.
property_name: pIC50

>>> df
                                smiles_input       tgt  readout_qualifier  measured_number
 0  CC1=C2[C@H]3O[C@]34CC[C@@H]3C(C)(C)CCC[C@@]3(C)[C@@H]4[C@@H](O)[C@H]2OC1=O  RAW264.7                  =             4.90
 1  C=C1C[C@@]23CC[C@@H]4C(C)(C)C(=O)CC[C@@]4(C)[C@@H]2C[C@@H]1[C@@H](O)C3=O  RAW264.7                  <             4.70
 2  CC1=C2C(=O)C3=C([C@@H](O)[C@H]2OC1=O)[C@]1(C)CCCC(C)(C)[C@H]1CC3  RAW264.7                  <             4.70
 3  C=C[C@]1(C)CC[C@@]2(C)c3cc(O)c(O)c(C)c3CC[C@@H]2C1  RAW264.7                  =             5.13
 4  C[C@H]1C[C@]2(OC(=O)/C=C/c3ccccc3)C(=O)/C(CO)=C/[C@@H]3[C@H](CC[C@@]4(C)O[C@H]4[C@H]2[C@H]1O)C3(C)C  RAW264.7                  =             5.03
 5  CC1=C2[C@@H](O)[C@@]3(O)CC[C@@H]4C(C)(C)CCC[C@@]4(C)[C@@H]3[C@@H](O)[C@H]2OC1=O  RAW264.7                  <             4.70
 6  CC1=C[C@]23C(=O)[C@@H](C=C(CO)[C@@H](O)[C@]2(O)[C@H]1O)[C@H]1[C@@H](C[C@H]3C)C1(C)C  RAW264.7                  <             4.70
 7  COc1ccc2c(c1)c(CC(=O)O)c(C)n2C(=O)c1ccc(Cl)cc1  RAW264.7                  =             4.90
 8  CC1=C2[C@@H](O)C3=C([C@@H](O)[C@H]2OC1=O)[C@]1(C)CCCC(C)(C)[C@H]1CC3  RAW264.7                  <             4.70
 9  CC1=C2C=C3CC[C@@H]4C(C)(C)CCC[C@@]4(C)[C@@H]3[C@H](O)[C@H]2OC1=O  RAW264.7                  <             4.70
10  CC1=C2[C@@H](O)C3=CC[C@@H]4C(C)(C)CCC[C@@]4(C)[C@@H]3[C@@H](O)[C@H]2OC1=O  RAW264.7                  <             4.70
11  CC1=C2[C@H](OC1=O)[C@H](O)[C@H]1[C@]3(C)CCCC(C)(C)[C@H]3CC[C@@]1(O)[C@H]2O  RAW264.7                  =             5.25
12                                  N=C(N)NN  RAW264.7                  =             4.73
13  CC1=C2C=C3[C@@H](O)C[C@@H]4C(C)(C)CCC[C@@]4(C)[C@@H]3[C@@H](O)[C@H]2OC1=O  RAW264.7                  <             4.70
14  C=C[C@]1(C)CC[C@@]2(C)C3=CC(=O)O[C@@H]3C(C)(C)C[C@H](O)[C@@H]2C1  RAW264.7                  <             4.70
